Where these numbers come from: paper PMC4203399

Biological target: recombinant NS5BCΔ21 1b (Hepatitis C virus genotype 1b)
Test: NS5B primer dependent elongation
Format: biochemical
Settings: read-out: inhibition of NS5B RdRp activity, screen at 50 μM
Below, each entry is listed with its recorded inhibition at 50 µM.
measurement-type: inhibition at 50 µM

| record-smiles | result |
| --- | --- |
| COc1cccc(-n2nc(C(=O)Nc3ccc(NS(C)(=O)=O)cc3)c3c2-c2ccccc2S(=O)(=O)N3C)c1 | < 50% |
| CN1c2c(C(=O)Nc3ccc(NS(C)(=O)=O)cc3)nn(-c3ccc(C(F)(F)F)cc3)c2-c2ccccc2S1(=O)=O | ≥ 50% |
| CN1c2c(C(=O)Nc3ccc(NS(C)(=O)=O)cc3)nn(-c3ccc(Cl)c(C(F)(F)F)c3)c2-c2ccccc2S1(=O)=O | < 50% |
| CN1c2c(C(=O)Nc3ccc(NS(C)(=O)=O)cc3)nn(-c3cccc(C(F)(F)F)c3)c2-c2ccccc2S1(=O)=O | ≥ 50% |
| CN1c2c(C(=O)Nc3ccc(NS(C)(=O)=O)cc3)nn(-c3ccc(Cl)c(Cl)c3)c2-c2ccccc2S1(=O)=O | ≥ 50% |
| CN1c2c(C(=O)Nc3ccc(NS(C)(=O)=O)cc3)nn(-c3ccc(F)c(F)c3)c2-c2ccccc2S1(=O)=O | ≥ 50% |
| COc1ccc(-n2nc(C(=O)Nc3ccc(NS(C)(=O)=O)cc3)c3c2-c2ccccc2S(=O)(=O)N3C)cc1 | < 50% |
